The measurements presented in this section are drawn from ChEMBL document CHEMBL5356984.

- Tested on: MCF7
- assay.protocol: Antiproliferative activity against human MCF7 cells assessed as inhibition of cell viability measured after 48 hrs by MTT assay
- Assay type: functional, cell-based
- details: MCF7, 48 h
pIC50: −log10 of the molar value.
Label criterion met when pIC50 is at or above 5; otherwise label criterion not met.

COc1cc(/C=C/C(=O)/C=C/N2CCN(C)CC2)cc(OC)c1 | criterion not met
COC1=C2C[C@@H](C)C[C@H](OC)[C@H](O)[C@@H](C)/C=C(\C)[C@H](OC(N)=O)[C@@H](OC)/C=C\C=C(/C)C(=O)NC(=CC1=O)C2=O [GELDANAMYCIN] | criterion met

We next turn to a different compound, shown below.
Query :: Is it the case that COc1cc(/C=C/C(=O)/C=C/N(C)CCN(C)C)cc(OC)c1 has pIC50 reaching or exceeding 5?
Result :: criterion not met

----------
- Test system: BT-474
- assay.protocol: Antiproliferative activity against human BT-474 cells assessed as inhibition of cell viability measured after 48 hrs by MTT assay
- Format: functional, cell-based
- details: BT-474, 48 h
measurement.name: pIC50
Remember the convention: pIC50 equals -log10 of concentration in molar.

CN1CCN(/C=C/C(=O)/C=C/c2cccc(O[Si](C)(C)C(C)(C)C)c2)CC1 | 5.04

Turning now to a further molecule:
Query :: Look up pIC50: COC1=C2C[C@@H](C)C[C@H](OC)[C@H](O)[C@@H](C)/C=C(\C)[C@H](OC(N)=O)[C@@H](OC)/C=C\C=C(/C)C(=O)NC(=CC1=O)C2=O
Result :: 7.57

----------
- Tested on: MDA-MB-468
- assay.protocol: Antiproliferative activity against human MDA-MB-468 cells assessed as inhibition of cell viability measured after 48 hrs by MTT assay
- Type: functional, cell-based
- details: MDA-MB-468, 48 h
Collected IC50 values appear next to each entry.

CN1CCN(/C=C/C(=O)/C=C/c2cccc(O[Si](C)(C)C(C)(C)C)c2)CC1 | 8.16 µM
CN1CCN(/C=C/C(=O)/C=C/c2cccc3c2OCO3)CC1 | > 20 µM
COc1cc(/C=C/C(=O)/C=C/N2CCN(C)CC2)cc(OC)c1 | > 20 µM
COC1=C2C[C@@H](C)C[C@H](OC)[C@H](O)[C@@H](C)/C=C(\C)[C@H](OC(N)=O)[C@@H](OC)/C=C\C=C(/C)C(=O)NC(=CC1=O)C2=O [GELDANAMYCIN] | 0.033 µM

Turning now to a further compound:
Query :: Look up IC50: COc1cc(/C=C/C(=O)/C=C/N(C)CCN(C)C)cc(OC)c1
Result :: > 20 µM

----------
- assay.protocol: Thermal stability of compound in boiling toluene at 120 degreeC assessed as time taken for compound decomposition at 1 mg/ml by HPLC analysis
- Type: physicochemical
- details: read-out: T50
measurement.name: half-life at 1 mg/ml

CN1CCN(/C=C/C(=O)/C=C/c2cccc(O[Si](C)(C)C(C)(C)C)c2)CC1 | > 12 h

Query :: Look up half-life at 1 mg/ml: CC(C)=CCC[C@]1(C)/C=C/[C@@H](OC(=O)C=C(C)C)[C@](C)(O)/C=C/C(=O)/C(CN2CCN(C)CC2)=C\C1
Result :: < 0.0833 h
